Here, each record is paired with measured pest or weed control at 250 g/ha data.
- Test system: Avena fatua (AVEFA)
- PROTOCOL_NOTES: Pre-emergence herbicidal glasshouse test, Avena fatua
- Type: in vivo
- EXPERIMENTAL_CONDITIONS: Avena fatua, 312 h, rate 250 g/ha, evaluated after 13 days, scale 100 = total damage to plant, 0 = no damage
Quick reminder: number only, in %, skip the unit.

>>> recorded_measurement("CCc1cc(-c2ccccc2)ccc1C1=C(O)[C@@]2(C)CC[C@H](O2)C1=O (racemic)")
0
>>> recorded_measurement("CCc1cc(-c2ccc(F)c(OC)c2)ccc1C1=C(O)C(C)(C)S(=O)(=O)C(C)(C)C1=O")
30
>>> recorded_measurement("CCc1cc(-c2cccc(Cl)c2)ccc1C1=C(O)C(C)(C)OC(C)(C)C1=O")
0
>>> recorded_measurement("CCc1cc(-c2ccc(C)cc2)ccc1C1=C(O)C(C)(C)OC(C)(C)C1=O")
0

In: Give the measured pest or weed control at 250 g/ha of CCc1cc(-c2cc(F)c(F)c(F)c2)ccc1C1=C(O)C(C)(C)SC(C)(C)C1=O .
Out: 0

In: Query (compound): CCc1cc(-c2ccc(Cl)cc2C)ccc1C1=C(O)[C@@]2(C)CC[C@H](O2)C1=O ; field requested: pest or weed control at 250 g/ha
Out: 0

In: Look up pest or weed control at 250 g/ha for this compound: CCc1cc(-c2ccc(F)cc2)ccc1C1=C(OC(=O)C(C)(C)C)C(C)OC(C)(C)C1=O (stereo not shown)
Out: 0

In: Looking for the measured pest or weed control at 250 g/ha of CCc1cc(-c2ccc(Cl)cn2)ccc1C1=C(O)C(C)(C)OC(C)(C)C1=O , can you help?
Out: 30

In: Query: pest or weed control at 250 g/ha; subject: CCc1cc(-c2cc(Cl)cc(C(F)(F)F)c2)ccc1C1=C(O)C(C)(C)OC(C)(C)C1=O
Out: 0

In: Need pest or weed control at 250 g/ha, item CCc1cc(-c2ccc(Cl)s2)ccc1C1=C(O)C(C)(C)OC(C)(C)C1=O
Out: 30

In: Item under review: CCc1cc(-c2cc(F)c(F)c(F)c2)ccc1C1=C(O)C(C)(C)C(=O)C(C)(C)C1=O . Reported pest or weed control at 250 g/ha?
Out: 20

In: Would you kindly share the measured pest or weed control at 250 g/ha for CCc1cc(-c2ccc(Cl)c(Cl)c2F)ccc1C1=C(O)[C@@]2(C)CC[C@H](O2)C1=O (racemic) ?
Out: 30

In: I would be grateful if you could share the reported pest or weed control at 250 g/ha for CC1(C)OC(C)(C)C(O)=C(c2ccc(-c3ccc(F)cc3)cc2Cl)C1=O .
Out: 0

In: Given the entry Cc1cc(-c2ccc(Cl)cc2)ccc1C1=C(O)[C@@]2(C)CC[C@H](O2)C1=O (racemic) , report its measured pest or weed control at 250 g/ha.
Out: 0

In: I'd like to know its pest or weed control at 250 g/ha. The compound in question is CCc1cc(-c2ccc(C(F)(F)F)cc2)ccc1C1=C(O)C(C)(C)OC(C)(C)C1=O
Out: 0

In: For the compound CCc1cc(-c2ccc(F)c(OC)c2)ccc1C1=C(O)C(C)(CC)OC(C)(CC)C1=O (stereo not shown) , what pest or weed control at 250 g/ha is on record?
Out: 0
